The measurements presented in this section are drawn from ChEMBL document CHEMBL1152097.

Reported values: Ki for UniProt P20789, one per item.
Sequence (P20789 whole entry): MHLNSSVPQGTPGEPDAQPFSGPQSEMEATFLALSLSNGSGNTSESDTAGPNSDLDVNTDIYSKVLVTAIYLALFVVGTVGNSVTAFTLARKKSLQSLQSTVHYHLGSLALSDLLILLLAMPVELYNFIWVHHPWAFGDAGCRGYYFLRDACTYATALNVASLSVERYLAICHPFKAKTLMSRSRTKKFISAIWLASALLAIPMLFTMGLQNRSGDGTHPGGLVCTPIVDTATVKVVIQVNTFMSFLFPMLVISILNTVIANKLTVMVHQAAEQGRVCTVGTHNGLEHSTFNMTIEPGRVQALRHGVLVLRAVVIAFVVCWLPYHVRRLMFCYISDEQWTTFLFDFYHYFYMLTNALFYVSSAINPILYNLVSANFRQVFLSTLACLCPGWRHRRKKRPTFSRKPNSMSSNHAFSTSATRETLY
observed property: Ki (nM)

>>> result_value("CC[C@H](C)[C@H](NC(=O)N(Cc1ccc(O)cc1)c1cccc(NC(=O)[C@H](CCCCN)NC(=O)OC(C)(C)C)c1F)C(=O)N[C@@H](CC(C)C)C(=O)O")
2200
>>> result_value("CC[C@H](C)[C@H](NC(=O)[C@H](Cc1ccc(O)cc1)c1cccc(NC(=O)[C@H](CCCCN)NC(=O)OC(C)(C)C)c1)C(=O)N[C@@H](CC(C)C)C(=O)O")
29
